Cited source: patent US20230235054A1

Measured target: T1, RatNectin4-His (rat, UniProt D3ZET1 31-348)
T1 construct: Immobilized on the SPR chip; not shown: His tag
T1 sequence: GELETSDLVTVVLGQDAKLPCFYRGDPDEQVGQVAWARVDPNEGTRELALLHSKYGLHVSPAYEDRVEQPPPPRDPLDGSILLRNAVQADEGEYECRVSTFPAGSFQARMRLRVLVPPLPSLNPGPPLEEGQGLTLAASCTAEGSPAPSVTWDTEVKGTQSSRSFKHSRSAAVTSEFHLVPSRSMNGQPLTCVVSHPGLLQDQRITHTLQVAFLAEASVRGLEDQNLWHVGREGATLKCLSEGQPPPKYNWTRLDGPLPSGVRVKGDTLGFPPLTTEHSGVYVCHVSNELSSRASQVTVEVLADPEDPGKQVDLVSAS
Measurement description: SPR, RatNectin4-His immobilized, pH 6.0
Recorded koff values for a group of binders are listed next.
Readout kind: koff (s⁻¹)

[
  {
    "Binder": "BAP-143-06-24-16 (antibody, V domains shown, Used as a conjugate with a linker payload (CAB ADC)) VH: EVQLVQSGAEVKKPGATVKISCKVSGFTFSSYNMNWIRQSPSRGLEWLGYISSSSSTIYYADSVKGRFTISRDNSKNTLYLQMNSLRAEDTAVYYCARAYYYGDDVWGQGTLVTVSS VL: DIQMTQSPSSVSASVGDRVTITCHASQGISGWLAWYQQKPGKAPKFLIYAASTLQSGVPSRFSGSGSGTDFTLTISSLQPEDFATYYCQQANSFPPTFGGGTKVEIK",
    "Measured": 0.000635
  },
  {
    "Binder": "BAP-143-07-03-12 (antibody, V domains shown, Used as a conjugate with a linker payload (CAB ADC)) VH: EVQLVESGGGLVQPGGSLRLSCAASGFTFSSYNMNWVRQAPGKGLEWVSYISSSSSTIYYADSVKGRFTISRDNAKNSLSLQMNSLRDEDTAVYYCARAYYYGMDKWGQGTTVTVSS VL: DIQMTQSPSSVSASVGDRVTITCRASQGISGWEAWYQQKPGKAPKFLIYAASTLQSGVPSRFSGSGSGTDFTLTISSLQPEDFATYYCQQANSFPPTFGGGTKVEIK",
    "Measured": 0.0012
  },
  {
    "Binder": "BAP-143-06-33-16 (antibody, V domains shown, Used as a conjugate with a linker payload (CAB ADC)) VH: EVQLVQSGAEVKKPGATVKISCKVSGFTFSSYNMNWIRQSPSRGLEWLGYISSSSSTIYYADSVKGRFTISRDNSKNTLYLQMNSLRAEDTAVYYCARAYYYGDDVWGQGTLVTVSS VL: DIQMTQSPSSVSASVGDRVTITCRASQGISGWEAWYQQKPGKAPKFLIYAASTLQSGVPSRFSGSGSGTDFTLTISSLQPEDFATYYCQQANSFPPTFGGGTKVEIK",
    "Measured": 0.000394
  },
  {
    "Binder": "BAP-143-00-01 (antibody, V domains shown, Used as a conjugate with a linker payload (CAB ADC)) VH: EVQLVESGGGLVQPGGSLRLSCAASGFTFSSYNMNWVRQAPGKGLEWVSYISSSSSTIYYADSVKGRFTISRDNAKNSLSLQMNSLRDEDTAVYYCARAYYYGMDVWGQGTTVTVSS VL: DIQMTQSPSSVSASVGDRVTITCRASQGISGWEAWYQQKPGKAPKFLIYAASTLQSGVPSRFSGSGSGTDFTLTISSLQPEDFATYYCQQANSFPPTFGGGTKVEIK",
    "Measured": 0.00159
  }
]
